system: PC-3 prostate; test: NCI-60 one-dose screen, 48 h (100 = growth as untreated, 0 = no growth, -100 = all killed); conditions: 10 µM unless noted
About 83,000 compounds went through this panel and 20% of them were active in at least one assay; those are over-represented in the sample as a whole.

{"Compound": "Nc1nc(-c2ccccn2)cc(-c2cc(-c3ccccn3)nc(N)n2)n1", "growth [%]": 99.3}
{"Compound": "CCN(C)c1ccccc1", "growth [%]": 95.8}
{"Compound": "COC(=O)c1nc(N)nc(C(=O)OC)c1C(=O)c1ccc(F)cc1", "growth [%]": 104}
{"Compound": "Nc1ccc(Cl)c(S(=O)(=O)O)c1", "growth [%]": 108}
{"Compound": "CCOC(=O)c1ccc(C(=N)N)cc1", "growth [%]": 89.6}
{"Compound": "O=[N+]([O-])c1cccc(N=Cc2ccccc2)c1", "growth [%]": 90.6}
{"Compound": "COc1ccc(COC=O)cc1", "growth [%]": 99.9}
{"Compound": "COC(=O)c1nc(=S)[nH]c(C(=O)OC)c1C(=O)c1ccccc1", "growth [%]": 91.2}
{"Compound": "O=C(O)COc1ccccc1F", "growth [%]": 82.6}
{"Compound": "COCCNC(C)=O", "growth [%]": 101}
{"Compound": "Cc1cc(-c2ccc(N=Nc3c(C)nn(-c4ccc(S(=O)(=O)O)cc4)c3O)c(C)c2)ccc1N=Nc1ccc(O)c(C(=O)O)c1", "growth [%]": 98.2}
{"Compound": "CN1C2C=CC(=O)C1C1C(=O)N(c3ccccc3)C(=O)C12 (stereo unspecified)", "growth [%]": 54.8}
{"Compound": "Cn1c(-c2ccccc2)cc(=O)cc1-c1ccccc1", "growth [%]": 67.1}
{"Compound": "COc1ccc2nccc(Cl)c2c1", "growth [%]": 95.3}
{"Compound": "O=C(O)Cc1cc(=O)[nH]n(-c2ccccc2)c1=O", "growth [%]": 94}
{"Compound": "CC(C)(C)C1CCC(=NO)CC1 (stereo unspecified)", "growth [%]": 86.7}
{"Compound": "COc1ccc(CCNC(=S)NN)cc1OC", "growth [%]": 101}
{"Compound": "O=C(c1ccncc1)c1c(Cc2ccccc2)ccc2ccccc12", "growth [%]": 83}
{"Compound": "O=C(c1ccc(Cl)cc1)C1C(c2ccccc2)C1[N+](=O)[O-] (stereo unspecified)", "growth [%]": 90.5}
{"Compound": "Clc1ccc2sc(-c3ccccc3)nc2c1", "growth [%]": 88}
{"Compound": "Oc1ccc(O)c(-c2ccccc2)c1", "growth [%]": 64.3}
{"Compound": "COc1ccc(CCl)c(C)c1OC", "growth [%]": 94.2}
{"Compound": "COC(=O)c1cc(C(=O)OC)cc([N+](=O)[O-])c1", "growth [%]": 98.7}
{"Compound": "CCCC(=O)Oc1ccc(CC)cc1", "growth [%]": 101}
{"Compound": "Cc1ccc(NC(=S)N/C=C(\\c2ccccc2)S(=O)Cc2ccccc2)c(C)c1 (stereo unspecified)", "growth [%]": 86}
{"Compound": "O=P(O)(O)OC1C(OP(=O)(O)O)C(OP(=O)(O)O)C(OP(=O)(O)O)C(OP(=O)(O)O)C1OP(=O)(O)O.[Cu+2] (stereo unspecified)", "growth [%]": 105}
